- System: HSSY-II complex spheroid growth, percent test/control
- assay method text: Anticancer human tumor HSSY-II cell line growth inhibition [Asc];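 also: spheroids exposed to drug for 7 days before reading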
- particulars: second compound 0.01 µM; first compound 1 µM; stronger effect = lower value
observed property: viability, T/C (%)
Provide only the numeric value, understood in %.

compound: C=CC(=O)N1CCN(c2nc(=O)n(-c3c(C)ccnc3C(C)C)c3nc(-c4c(O)cccc4F)c(F)cc23)C(C)C1 (configuration not stated) + CNC(C)C(=O)NC1CN(S(=O)(=O)c2cccc(S(=O)(=O)N3CCC4CCC(C(=O)NC(c5ccccc5)c5ccccc5)N4C(=O)C(NC(=O)C(C)NC)C3)c2)CCC2CCC(C(=O)NC(c3ccccc3)c3ccccc3)N2C1=O
target system: HSSY-II complex spheroid growth, percent test/control
observed property: viability, T/C
result: 101

compound: C=C(F)C(=O)N1CCN(c2nc(OCC3CCCN3C)nc3c2CCN(c2cccc4cccc(Cl)c24)C3)CC1CC#N (configuration not stated) + CNC(C)C(=O)NC1CN(S(=O)(=O)c2cccc(S(=O)(=O)N3CCC4CCC(C(=O)NC(c5ccccc5)c5ccccc5)N4C(=O)C(NC(=O)C(C)NC)C3)c2)CCC2CCC(C(=O)NC(c3ccccc3)c3ccccc3)N2C1=O
target system: HSSY-II complex spheroid growth, percent test/control
observed property: viability, T/C
result: 45.9

compound: COc1c(OCCCN2CCOCC2)ccc2c3n(c(=NC(=O)c4cnc(N)nc4)nc12)CCN3 + CNC(C)C(=O)NC1CN(S(=O)(=O)c2cccc(S(=O)(=O)N3CCC4CCC(C(=O)NC(c5ccccc5)c5ccccc5)N4C(=O)C(NC(=O)C(C)NC)C3)c2)CCC2CCC(C(=O)NC(c3ccccc3)c3ccccc3)N2C1=O
target system: HSSY-II complex spheroid growth, percent test/control
observed property: viability, T/C
result: 12

compound: O=C(c1ccc(F)c(F)c1Nc1ccc(I)cc1F)N1CC(O)([C@@H]2CCCCN2)C1 + CNC(C)C(=O)NC1CN(S(=O)(=O)c2cccc(S(=O)(=O)N3CCC4CCC(C(=O)NC(c5ccccc5)c5ccccc5)N4C(=O)C(NC(=O)C(C)NC)C3)c2)CCC2CCC(C(=O)NC(c3ccccc3)c3ccccc3)N2C1=O
target system: HSSY-II complex spheroid growth, percent test/control
observed property: viability, T/C
result: 22.4

Request: For the compound C#Cc1c(F)ccc2cc(O)cc(-c3ncc4c(N5CC6CCC(C5)N6)nc(OCC56CCCN5CC(F)C6)nc4c3F)c12 (configuration not stated) + CNC(C)C(=O)NC1CN(S(=O)(=O)c2cccc(S(=O)(=O)N3CCC4CCC(C(=O)NC(c5ccccc5)c5ccccc5)N4C(=O)C(NC(=O)C(C)NC)C3)c2)CCC2CCC(C(=O)NC(c3ccccc3)c3ccccc3)N2C1=O , what viability, T/C is on record?
Result: 98.1

Request: Recorded viability, T/C of O=C(c1cc(Cc2n[nH]c(=O)c3ccccc23)ccc1F)N1CCN(C(=O)C2CC2)CC1 + CNC(C)C(=O)NC1CN(S(=O)(=O)c2cccc(S(=O)(=O)N3CCC4CCC(C(=O)NC(c5ccccc5)c5ccccc5)N4C(=O)C(NC(=O)C(C)NC)C3)c2)CCC2CCC(C(=O)NC(c3ccccc3)c3ccccc3)N2C1=O , please.
Result: 83.5

Request: Fill blank: measured viability, T/C of the compound CCN1CCN(Cc2ccc(Nc3ncc(F)c(-c4cc(F)c5nc(C)n(C(C)C)c5c4)n3)nc2)CC1 + CNC(C)C(=O)NC1CN(S(=O)(=O)c2cccc(S(=O)(=O)N3CCC4CCC(C(=O)NC(c5ccccc5)c5ccccc5)N4C(=O)C(NC(=O)C(C)NC)C3)c2)CCC2CCC(C(=O)NC(c3ccccc3)c3ccccc3)N2C1=O is ____.
Result: 23.2

Where do the numbers come from? From PubChem BioAssay AID1963444.
